system: Aspergillus fumigatus; experiment: Antimicrobial activity against Aspergillus fumigatus 7544 after 48 hrs by serial dilution method; assay type: functional; conditions: Aspergillus fumigatus, 7544, 48 h
QUANTITY_KIND: MIC

Please review the following examples before continuing.
Input line: Can you look up MIC on Aspergillus fumigatus for C[C@@H](N1CCc2sc(-c3cncnc3)cc2C1)[C@](O)(Cn1cncn1)c1ccc(F)cc1F ?
Output line: > 32 µg/mL

Input line: Can you look up MIC on Aspergillus fumigatus for C[C@@H](N1CCc2sc(-c3ccncc3)cc2C1)[C@](O)(Cn1cncn1)c1ccc(F)cc1F ?
Output line: > 32 µg/mL

Input line: Can you look up MIC on Aspergillus fumigatus for C[C@@H](N1CCn2nnc(Br)c2C1)[C@](O)(Cn1cncn1)c1ccc(F)cc1F ?
Output line: 8 µg/mL

Input line: Can you look up MIC on Aspergillus fumigatus for C[C@@H](N1CCn2nnc(Cl)c2C1)[C@](O)(Cn1cncn1)c1ccc(F)cc1F ?
Output line: 8 µg/mL

---
Input line: Can you look up MIC on Aspergillus fumigatus for C[C@@H](N1CCn2nnc(-c3ccc(C#N)nc3)c2C1)[C@](O)(Cn1cncn1)c1ccc(F)cc1F ?
Output line: > 16 µg/mL
